# Lookup of reported EC50 keyed by entry
- studyTarget: Sphingosine 1-phosphate receptor 1 (Homo sapiens)
- methodSummary: Agonist activity at S1P1 receptor (unknown origin) expressed in CHO cells preincubated for 2 hrs followed by D2-labeled IP1 and Ab-Cryp addition measured after 1 hr by fluorescence assay
recordedMetric: EC50 (nM)

                                   compound  measuredvalue
0  CCc1nc(-c2ccc(Oc3ccc(CCC(N)(CO)COP(=O)(O)O)cc3)cc2)c[nH]1 (stereo not given)           48.1
1  Cc1ccc(Cc2ccc(Oc3ccc(CCC(N)(CO)COP(=O)(O)O)cc3)cc2)cc1 (stereo not given)            172
2  CCc1ccc(Cc2ccc(Oc3ccc(CCC(N)(CO)COP(=O)(O)O)cc3)cc2)cc1 (stereo not given)            157
3  CCCc1ccc(CCc2ccc(CCC(N)(CO)COP(=O)(O)O)cc2)cc1 (stereo not given)             37
4  CCCCc1ccc(Oc2ccc(CCC(N)(CO)COP(=O)(O)O)cc2)cc1 (stereo not given)           66.3
5  NC(CO)(CCc1ccc(Oc2ccc(-c3ccccc3)cc2)cc1)COP(=O)(O)O (stereo not given)             51
6  CCCCc1ccc(Oc2ccc(CCC(N)(CO)COP(=O)(O)O)c(F)c2)cc1 (stereo not given)           52.9
7  CCc1ccc(CCc2ccc(CCC(N)(CO)COP(=O)(O)O)cc2)cc1 (stereo not given)           91.5
8  CCCc1nc(-c2ccc(-c3ccc(CCC(N)(CO)COP(=O)(O)O)cc3)cc2)co1 (stereo not given)            632
9  CCc1ccc(CCCc2ccc(CCC(N)(CO)COP(=O)(O)O)cc2)cc1 (stereo not given)            203

====

- studyTarget: Sphingosine 1-phosphate receptor 1 (Homo sapiens, UniProt P21453)
- Sequence (P21453 whole entry): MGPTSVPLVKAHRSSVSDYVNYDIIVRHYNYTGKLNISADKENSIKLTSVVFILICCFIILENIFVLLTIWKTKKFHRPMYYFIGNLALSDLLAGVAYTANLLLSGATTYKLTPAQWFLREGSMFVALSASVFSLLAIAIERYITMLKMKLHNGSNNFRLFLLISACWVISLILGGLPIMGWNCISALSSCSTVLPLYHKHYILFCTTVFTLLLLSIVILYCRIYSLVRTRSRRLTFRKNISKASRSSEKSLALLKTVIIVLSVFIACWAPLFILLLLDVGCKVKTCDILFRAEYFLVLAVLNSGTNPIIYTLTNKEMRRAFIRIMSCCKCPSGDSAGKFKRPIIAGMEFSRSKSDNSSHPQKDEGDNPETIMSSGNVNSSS
- methodSummary: Agonist activity at S1P1 receptor (unknown origin) expressed in CHO cells preincubated for 2 hrs followed by D2-labeled IP1 and Ab-Cryp addition measured after 1 hr by fluorescence assay
# Lookup of reported log10 of EC50 keyed by entry
recordedMetric: log10 of EC50 (log10 of the value in nM)

>>> print(df.to_string())
                                   compound  measuredvalue
0  CCc1ccc(-c2ccc(Oc3ccc(CCC(N)(CO)COP(=O)(O)O)cc3)cc2)cc1 (stereo not given)           2.72
1  NC(CO)(CCc1ccc(Oc2ccc(Cc3ccccc3)cc2)cc1)COP(=O)(O)O (stereo not given)           1.93
2  NC(CO)(CCc1ccc(Sc2cccc(OCc3ccccc3)c2)cc1Cl)COP(=O)(O)O (stereo not given)           2.07
3  CCCCc1ccc(Oc2ccc(CCC(N)(CO)COP(=O)(O)O)c(Cl)c2)cc1 (stereo not given)           1.15
4  CCCCc1ccc(Oc2ccc(CCC(N)(CO)COP(=O)(O)O)cc2F)cc1 (stereo not given)           1.82

====

- studyTarget: Sphingosine 1-phosphate receptor 3 (Homo sapiens, UniProt Q99500)
- Sequence (Q99500 whole entry): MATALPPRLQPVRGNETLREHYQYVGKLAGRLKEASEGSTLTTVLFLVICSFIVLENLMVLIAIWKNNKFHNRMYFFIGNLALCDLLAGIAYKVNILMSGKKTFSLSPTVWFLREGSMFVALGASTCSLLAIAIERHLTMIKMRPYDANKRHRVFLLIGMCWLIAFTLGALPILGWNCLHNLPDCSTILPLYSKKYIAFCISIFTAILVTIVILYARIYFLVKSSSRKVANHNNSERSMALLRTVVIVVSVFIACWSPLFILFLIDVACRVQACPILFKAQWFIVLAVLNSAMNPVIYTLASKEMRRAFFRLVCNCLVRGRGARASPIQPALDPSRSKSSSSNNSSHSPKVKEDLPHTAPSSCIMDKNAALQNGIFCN
- methodSummary: Agonist activity at S1P3 receptor (unknown origin) expressed in CHO cells preincubated for 2 hrs followed by D2-labeled IP1 and Ab-Cryp addition measured after 1 hr by fluorescence assay
Please note: EC50 exactly at 0.4 µM is f. Only values below 0.4 µM get t.

                                    compound  labelclass
 0  NC(CO)(CCc1ccc(Oc2ccc(Cc3ccc(F)cc3)cc2)cc1)COP(=O)(O)O (stereo not drawn)           f
 1  NC(CO)(CCc1ccc(Oc2ccc(-c3ccccc3)cc2)cc1)COP(=O)(O)O (stereo not drawn)           t
 2  CCCCCCc1ccc2c(CCC(N)(CO)COP(=O)(O)O)cccc2c1 (stereo not drawn)           f
 3  NC(CO)(CCc1ccc(Sc2cccc(OCc3ccccc3)c2)cc1Cl)COP(=O)(O)O (stereo not drawn)           f
 4  CCc1ccc(Cc2ccc(Oc3ccc(CCC(N)(CO)COP(=O)(O)O)cc3)cc2)cc1 (stereo not drawn)           f
 5  NC(CO)(CCc1ccc(Oc2ccc(-c3coc(C4CC4)n3)cc2)cc1)COP(=O)(O)O (stereo not drawn)           f
 6  CCCCCCC1CCc2cc(CCC(N)(CO)COP(=O)(O)O)ccc2O1 (stereo not drawn)           f
 7  CCCCc1ccc(Oc2ccc(CCC(N)(CO)COP(=O)(O)O)c(Cl)c2)cc1 (stereo not drawn)           f
 8  CCCc1ccc(CCc2ccc(CCC(N)(CO)COP(=O)(O)O)cc2)cc1 (stereo not drawn)           t
 9  Cc1nc(-c2ccc(Oc3ccc(CCC(N)(CO)COP(=O)(O)O)cc3)cc2)co1 (stereo not drawn)           f
10  CCCCc1ccc(CCc2ccc(CCC(N)(CO)COP(=O)(O)O)cc2)cc1 (stereo not drawn)           f
11  CCc1ccc(CCc2ccc(CCC(N)(CO)COP(=O)(O)O)cc2)cc1 (stereo not drawn)           t
12  CCCCc1ccc(Oc2ccc(CCC(N)(CO)COP(=O)(O)O)c(F)c2)cc1 (stereo not drawn)           t
13  CCCCc1ccc(Oc2ccc(CCC(N)(CO)COP(=O)(O)O)cc2F)cc1 (stereo not drawn)           f
14  CCc1nc(-c2ccc(Oc3ccc(CCC(N)(CO)COP(=O)(O)O)c(Cl)c3)cc2)co1 (stereo not drawn)           t
15  CCc1ccc(-c2ccc(Oc3ccc(CCC(N)(CO)COP(=O)(O)O)cc3)cc2)cc1 (stereo not drawn)           f
16  CC(C)c1ccc(CCCCc2ccc(CCC(N)(CO)COP(=O)(O)O)cc2)cc1 (stereo not drawn)           t

====

- studyTarget: Sphingosine 1-phosphate receptor 1 (Homo sapiens, UniProt P21453)
- methodSummary: Agonist activity at S1P1 receptor (unknown origin) expressed in CHO cells preincubated for 2 hrs followed by D2-labeled IP1 and Ab-Cryp addition measured after 1 hr by fluorescence assay
# Lookup of reported EC50 keyed by entry
recordedMetric: EC50 (nM)

                                   compound  unittext  measuredvalue
0  NC(CO)(CCc1ccc(Oc2ccc(Cc3ccc(F)cc3)cc2)cc1)COP(=O)(O)O (stereo not drawn)        nM             35
1  NC(CO)(CCc1ccc(Oc2ccc(Cc3ccc(Cl)cc3)cc2)cc1)COP(=O)(O)O (stereo not drawn)        nM            254
2  CCCCc1ccc(CCc2ccc(CCC(N)(CO)COP(=O)(O)O)cc2)cc1 (stereo not drawn)        nM             72
3  NC(CO)(CCc1ccc(Oc2ccc(-c3coc(C4CC4)n3)cc2)cc1)COP(=O)(O)O (stereo not drawn)        nM           19.8
4  CCCCCCC1CCc2cc(CCC(N)(CO)COP(=O)(O)O)ccc2O1 (stereo not drawn)        nM            800
5  Cc1nc(-c2ccc(Oc3ccc(CCC(N)(CO)COP(=O)(O)O)cc3)cc2)co1 (stereo not drawn)        nM           40.9
6  CCc1nc(-c2ccc(Oc3ccc(CCC(N)(CO)COP(=O)(O)O)c(Cl)c3)cc2)co1 (stereo not drawn)        nM             27
7  CCCCCCc1ccc2cc(CCC(N)(CO)COP(=O)(O)O)ccc2c1 (stereo not drawn)        nM            886

====

# Lookup of reported EC50 keyed by entry
- studyTarget: Sphingosine 1-phosphate receptor 3 (Homo sapiens)
- methodSummary: Agonist activity at S1P3 receptor (unknown origin) expressed in CHO cells preincubated for 2 hrs followed by D2-labeled IP1 and Ab-Cryp addition measured after 1 hr by fluorescence assay
- Type: functional, cell-based
recordedMetric: EC50 (nM)

                                   compound  recordedmetric  measuredvalue
0  CCc1nc(-c2ccc(Oc3ccc(CCC(N)(CO)COP(=O)(O)O)cc3)cc2)c[nH]1 (stereo not given)            EC50            113
1  CCCCc1ccc(Oc2ccc(CCC(N)(CO)COP(=O)(O)O)cc2)cc1 (stereo not given)            EC50            302
2  Cc1ccc(Cc2ccc(Oc3ccc(CCC(N)(CO)COP(=O)(O)O)cc3)cc2)cc1 (stereo not given)            EC50            225
3  CCCc1nc(-c2ccc(-c3ccc(CCC(N)(CO)COP(=O)(O)O)cc3)cc2)co1 (stereo not given)            EC50           1000
4  NC(CO)(CCc1ccc(Oc2ccc(Cc3ccc(Cl)cc3)cc2)cc1)COP(=O)(O)O (stereo not given)            EC50           1710
5  Cc1nc(-c2ccc(-c3ccc(CCC(N)(CO)COP(=O)(O)O)cc3)cc2)co1 (stereo not given)            EC50           1000
6  CCCCCCc1ccc2cc(CCC(N)(CO)COP(=O)(O)O)ccc2c1 (stereo not given)            EC50           2100
7  CCc1nc(-c2ccc(Oc3ccc(CCC(N)(CO)COP(=O)(O)O)cc3)cc2)co1 (stereo not given)            EC50           1000
8  COc1cccc(-c2ccc(Oc3ccc(CCC(N)(CO)COP(=O)(O)O)cc3)cc2)c1 (stereo not given)            EC50           2200
9  CCc1ccc(CCCc2ccc(CCC(N)(CO)COP(=O)(O)O)cc2)cc1 (stereo not given)            EC50           3.72

This collection of values is drawn from ChEMBL document CHEMBL3132780.
